src = ChEMBL document CHEMBL4513216

Hi there, I'd appreciate the recorded cytotoxicity at 10 µM for every entry that follows.
Assay: Toxicity liver stage against HepG2, at 10uM
Format: cell-based
Design: test concentration 10 uM, cell line HepG2-A16-CD81EGFP
Conditions: human, HepG2-A16-CD81EGFP cells; read-out: INHIBITION
Give the value in % but do not write % after it.

q: Provide one value: measured cytotoxicity at 10 µM of `CCC[C@H]1CN(S(=O)(=O)c2c(C)noc2C)C[C@@H]1N`
a: -0.288

q: Look up cytotoxicity at 10 µM of `CO[C@H]1CN(Cc2cccc(C#N)c2)[C@@H]2COC[C@H]12` and report it.
a: -5.77

q: For the compound COc1ccccc1N1CCN(C(=O)CSCC2CC2)C(C)C1 (stereo unspecified) , give its reported cytotoxicity at 10 µM.
a: 4.06

q: Provide measured cytotoxicity at 10 µM value, entry: `CCCc1cc(C(=O)NCCN2C(=O)c3ccccc3C2=O)[nH]n1`
a: 2.29

q: Tell us which cytotoxicity at 10 µM value is on record for `Cc1ccc(C(=O)N2CCC3(CCC(=O)N(CCCO)C3)CC2)c(O)c1`
a: 7.4

q: Return cytotoxicity at 10 µM for the following compound: `Cc1nc(NC(=O)N[C@H](CO)c2ccccc2)sc1C`
a: -7.32

q: State, in one line, measured cytotoxicity at 10 µM of COc1ccc(CN2CCC(c3cc(O)nc(C)n3)C2)c(F)c1 (stereo unspecified)
a: 0.442

q: Give a short answer stating reported cytotoxicity at 10 µM for CC(c1nc(C2CC2)no1)N1CCN(Cc2ccsc2)CC1 (stereo unspecified) .
a: 0.993

q: State, in one line, measured cytotoxicity at 10 µM of `CCN(CC)C(=O)CCNC(=O)c1ccccc1N1CCOCC1`
a: -0.768

q: Entry `CC(C)n1cnnc1CN(C)Cc1ccc(CN(C)S(C)(=O)=O)o1` needs its cytotoxicity at 10 µM filled in; supply it.
a: -1.31

q: For the compound `c1ccc(CNc2nc(N3CCOCC3)nc3nccnc23)cc1` , give its reported cytotoxicity at 10 µM.
a: 10.5
